assay: gradient 5% acetonitrile 3 min, to 50% in 2 min, to 85% in 15 min, held 3 min, 100 µL/min; conditions: column: Zorbax Extend-C18 2.1 x 50 mm; eluents: water / acetonitrile, 0.1% formic acid
I'd appreciate it if you could supply RP-LC retention time values for the items below.
API: value field is a number in s; no unit string.

Quick check: RP-LC retention time of Cc1cc(Nc2nc(C(=O)NCCCN3CCOCC3)cc3occc23)ccc1Br ?
724

Quick check: RP-LC retention time of CCN1CCN(C(=O)C2CCCN(S(=O)(=O)c3ccc4c(ccn4CC)c3)C2)CC1 (stereo not drawn) ?
660

Quick check: RP-LC retention time of CC[C@H](C)NC(=O)Cc1nnc(-c2cccc(C)c2)o1 ?
767
